Measured TGI, listed per entry.
# Tested on: NCI-H460 lung
# EXPERIMENT DESCRIPTION: NCI tumour cell line growth inhibition, 48 h

Solved entries (count: 8):
COMPOUND	REPORTED RESULT
O=C1CC(C[C@H](O)C2CCCCC2O)CC(=O)N1Cc1ccccc1 (some centres undefined)	> 100 µM
CC1=C2CCCC2=C/C(=N/Nc2ccc([N+](=O)[O-])cc2[N+](=O)[O-])CC1	> 100 µM
COC12C=C/C(=C(/C(=O)OCc3ccncc3)C(=O)CCCCCCCCC3(OC)C=C/C(=C(/C(=O)OCc4ccncc4)C(=O)CCCCCCCC1)O3)O2	1.98 µM
CCCCn1c(C)c2c(c1C)C(=O)N(CC(O)CN1CCc3ccccc3C1)C2=O (centres undefined)	> 100 µM
C[C@@H]1CCC2[C@@H](C)[C@@H](OCCO[C@H]3OC4O[C@@]5(C)CCC6[C@H](C)CCC([C@H]3C)[C@@]46OO5)OC3O[C@@]4(C)CCC1[C@]32OO4 (some centres undefined)	> 100 µM
CCOC(=O)C1=C(N)Oc2ccc(Br)cc2C1C(C#N)C(=O)OCC (centres undefined)	> 100 µM
Cn1cc(C2=C(c3cn(C)c4cc(C(N)=O)ccc34)C(=O)NC2=O)c2ccccc21	> 9.8 µM
CC(=C\c1ccccc1)/C=C(\C#N)C(N)=O	> 10 µM

Next up:
Ask | Give its TGI value. Item: C[C@@]12CCC3C1C=C1C(=O)c4cc(O)ccc4C(=O)[C@]1(O2)[C@@]3(C)C=O
Reply | 10.6 µM
